# protocolDetails: solvent given as SMILES
# conditionParameters: in C1CCCCC1
Binned emission maximum; ranges: lo (below 400 nm), med (400 nm to below 500 nm), hi (500 nm or more)

INSERT INTO results (samplesmiles, answerlabel) VALUES
  ('CCC1(CC)c2cc(C=C(C#N)C#N)ccc2-c2ccc(N(C)C)cc21', 'hi');

Lab note: which band did Cc1ccc(C2=C3C=C(I)C(I)=[N+]3[B-](F)(F)n3c2cc(I)c3I)cc1 land in?
hi

// query: COc1ccc2c(c1)C(=O)c1ccccc1-2
hi

---

# protocolDetails: solvent given as SMILES
# conditionParameters: in CCCO
attributeMeasured: emission maximum (nm)
Express it in nm; write the number only.

Examples with their reported emission maximum follow.
INSERT INTO results (samplesmiles, measureunit, value) VALUES
  ('CCN(CC)c1ccc2ccc(=O)oc2c1', 'nm', 442),
  ('O=C(O)c1c2ccccc2nc2ccccc12', 'nm', 422),
  ('N#Cc1c(-c2ccccc2)cc(-c2ccccc2)[nH]c1=S', 'nm', 493);

# lookup: emission maximum of COc1ccc(/C=C/C(=O)c2ccccc2O)cc1OC
495

Repeat for the following molecule: O=S(=O)(O)c1cccc2cccc(Nc3ccccc3)c12
479

Another molecule: Oc1ccccc1/N=C/c1ccccc1Oc1ccccc1
410
